test system: 556581-035-R-J1 tumor spheroid viability, % test/control; assay: Anticancer human tumor 556581-035-R-J1 patient-derived ovarian carcinoma cell line growth inhibition; conditions: second compound 0.3 µM; first compound 3 µM; stronger effect = lower value; spheroids with HUVEC and MSC
MEASURED_QUANTITY: viability, T/C (%)
Give bare numbers, in %.

For orientation, consider the following solved cases.
Q: Give a short answer stating reported viability, T/C for CNCc1ccc(-c2cc(-c3nc(-c4ccc(S(=O)(=O)C(C)C)cc4)cnc3N)on2)cc1 + CC[C@@]1(O)C(=O)OCc2c1cc1n(c2=O)Cc2cc3c(CN(C)C)c(O)ccc3nc2-1 .
A: 0.85

Q: Provide one value: measured viability, T/C of O=C(c1cc(Cc2n[nH]c(=O)c3ccccc23)ccc1F)N1CCN(C(=O)C2CC2)CC1 + CC[C@@]1(O)C(=O)OCc2c1cc1n(c2=O)Cc2cc3c(CN(C)C)c(O)ccc3nc2-1
A: 14.6

Q: Return the recorded viability, T/C value; entry: Cn1ncnc1[C@H]1c2n[nH]c(=O)c3cc(F)cc(c23)N[C@@H]1c1ccc(F)cc1 + CC[C@@]1(O)C(=O)OCc2c1cc1n(c2=O)Cc2cc3c(CN(C)C)c(O)ccc3nc2-1
A: 6.18

Next molecule, please.
Q: Answer with reported viability, T/C of Cc1sc2c(c1C)C(c1ccc(Cl)cc1)=NC(CC(=O)Nc1ccc(O)cc1)c1nnc(C)n1-2 (centres undefined) + CC[C@@]1(O)C(=O)OCc2c1cc1n(c2=O)Cc2cc3c(CN(C)C)c(O)ccc3nc2-1
A: 11.3

* * *

system: 556581-035-R-J1 tumor spheroid viability, % test/control; assay: Anticancer human tumor 556581-035-R-J1 cell line growth inhibition; details: second compound 1 µM; first compound 10 µM; stronger effect = lower value; spheroids with HUVEC and MSC;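 note: spheroids exposed to compounds for 7 days before viability read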
Would you kindly list viability, T/C for each of these compounds?
Answers are plain numbers, in %.

A selection of reference data follows.
Q: Query viability, T/C for Cc1cc(C)c(CNC(=O)c2cc(-c3ccc(CN4CCOCC4)cc3)cc3c2cnn3C2CCCC2)c(=O)[nH]1 + Cn1nnc2c(C(N)=O)ncn2c1=O
A: 88

Q: Tell us which viability, T/C value is on record for CC(C)n1c(=O)n(C)c2cnc3cc(F)c(-c4ccc(OCCCN5CCCCC5)nc4)cc3c21 + Cn1nnc2c(C(N)=O)ncn2c1=O
A: 70.2

Dear colleague, could you send me viability, T/C for each of the items below? Thanks.
1. [2H]c1nc(C)nc([2H])c1-c1cc(NC[C@@H](C)c2cccc3c(C(=O)NC)ccnc23)ncn1 + Cn1nnc2c(C(N)=O)ncn2c1=O
2. CC1COCCN1c1cc(-c2ccnn2C)c2ccnc(-c3ccn[nH]3)c2n1 (stereo unspecified) + Cn1nnc2c(C(N)=O)ncn2c1=O
3. COc1cc(C)[nH]c(=O)c1CN1CCc2c(Cl)cc(C(OC)C3COC3)c(Cl)c2C1=O (stereo unspecified) + Cn1nnc2c(C(N)=O)ncn2c1=O
4. COc1ccc([C@@H](O)c2cc(-c3ncnc4cc(N5CCOCC5)ccc34)c(F)cc2Cl)nn1 + Cn1nnc2c(C(N)=O)ncn2c1=O

A:
112
33
102
34.2

* * *

Tested on: 556581-035-R-J1 tumor spheroid viability, % test/control
Assay: Anticancer human tumor 556581-035-R-J1 cell line growth inhibition;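 note: spheroids exposed to compounds for 7 days before viability read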
Conditions: second compound 0.03 µM; first compound 0.1 µM; stronger effect = lower value; spheroids with HUVEC and MSC
Method: Multicellular complex tumor spheroid response to DNA repair inhibitors in combination with DNA-damaging drugs This study explores the anticancer activities of DNA-damaging drugs and inhibitors of DNA damage repair, both as single agents and in combinations. […] Twenty-six patient-derived or established malignant cell lines were evaluated representing sarcoma, melanoma, small cell lung cancer (SCLC), non-small cell lung cancer (NSCLC), as well as bladder, ovarian and pancreatic cancers. […]
MEASURED_QUANTITY: viability, T/C (%)
Answers are plain numbers, in %.

Completed entries (count: 5):
Q: Give reported viability, T/C value for CC(C)n1c(=O)n(C)c2cnc3cc(F)c(-c4ccc(OCCCN5CCCCC5)nc4)cc3c21 + CC[C@@]1(O)C(=O)OCc2c1cc1n(c2=O)Cc2cc3c(CN(C)C)c(O)ccc3nc2-1
A: 73.5

Q: Answer with reported viability, T/C of Cc1cc(C)c(CNC(=O)c2cc(-c3ccc(CN4CCOCC4)cc3)cc3c2cnn3C2CCCC2)c(=O)[nH]1 + CC[C@@]1(O)C(=O)OCc2c1cc1n(c2=O)Cc2cc3c(CN(C)C)c(O)ccc3nc2-1
A: 72.9

Q: Tell me its viability, T/C given [2H]c1nc(C)nc([2H])c1-c1cc(NC[C@@H](C)c2cccc3c(C(=O)NC)ccnc23)ncn1 + CC[C@@]1(O)C(=O)OCc2c1cc1n(c2=O)Cc2cc3c(CN(C)C)c(O)ccc3nc2-1 as the entry.
A: 75.7

Q: Identify the reported viability, T/C for the following entry. COc1ccc([C@@H](O)c2cc(-c3ncnc4cc(N5CCOCC5)ccc34)c(F)cc2Cl)nn1 + CC[C@@]1(O)C(=O)OCc2c1cc1n(c2=O)Cc2cc3c(CN(C)C)c(O)ccc3nc2-1
A: 64

Q: Tell me measured viability, T/C for COc1cc(C)[nH]c(=O)c1CN1CCc2c(Cl)cc(C(OC)C3COC3)c(Cl)c2C1=O (stereo unspecified) + CC[C@@]1(O)C(=O)OCc2c1cc1n(c2=O)Cc2cc3c(CN(C)C)c(O)ccc3nc2-1 please.
A: 65.1

Next, consider the following compound.
Q: Look up viability, T/C of CC1COCCN1c1cc(-c2ccnn2C)c2ccnc(-c3ccn[nH]3)c2n1 (stereo unspecified) + CC[C@@]1(O)C(=O)OCc2c1cc1n(c2=O)Cc2cc3c(CN(C)C)c(O)ccc3nc2-1 and report it.
A: 35.3

Origin of values: PubChem BioAssay AID1845199
